SYSTEM NAME: T1, recombinant human IL-6 (human, UniProt P05231 30-212)
T1 construct: Flowed in solution over the captured antibodies
T1 sequence (P05231 30-212 limits assumed): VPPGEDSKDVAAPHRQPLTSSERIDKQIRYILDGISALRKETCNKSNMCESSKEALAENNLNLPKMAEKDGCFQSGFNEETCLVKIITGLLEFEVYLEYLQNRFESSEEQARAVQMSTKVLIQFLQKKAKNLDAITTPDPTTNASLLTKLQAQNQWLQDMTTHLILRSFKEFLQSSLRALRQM
PROCEDURE TEXT: SPR (Biacore), supernatant IgG on Protein A, 25 C
QUANTITY: kon (M⁻¹ s⁻¹)

* anti-IL-6 antibody, parent sequence (heavy chain WT, light chain WT) (antibody, V domains shown, Tested as full antibody from Expi293 cells in an engineered human IgG1 framework (L234A, L235A, G237A, L443C, EU); also called wild-type; parent molecule) VH: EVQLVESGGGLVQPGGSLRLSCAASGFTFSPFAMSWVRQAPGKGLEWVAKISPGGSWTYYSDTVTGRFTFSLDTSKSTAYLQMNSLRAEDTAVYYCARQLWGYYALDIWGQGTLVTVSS VL: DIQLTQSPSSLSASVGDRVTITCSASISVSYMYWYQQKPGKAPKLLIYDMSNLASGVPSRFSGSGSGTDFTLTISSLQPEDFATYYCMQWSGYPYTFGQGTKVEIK | 315000
* anti-IL-6 antibody, heavy chain F27S, light chain WT (antibody, IgG1, V domains shown, Full IgG1 tested; V domains derived as in m2) VH: EVQLVESGGGLVQPGGSLRLSCAASGSTFSPFAMSWVRQAPGKGLEWVAKISPGGSWTYYSDTVTGRFTFSLDTSKSTAYLQMNSLRAEDTAVYYCARQLWGYYALDIWGQGTLVTVSS VL: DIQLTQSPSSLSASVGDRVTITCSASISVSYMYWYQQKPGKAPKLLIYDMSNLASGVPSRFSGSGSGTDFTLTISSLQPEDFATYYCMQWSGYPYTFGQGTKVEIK | 731000
* anti-IL-6 antibody, heavy chain L106F, light chain WT (antibody, IgG1, V domains shown, Full IgG1 tested; V domains derived as in m2) VH: EVQLVESGGGLVQPGGSLRLSCAASGFTFSPFAMSWVRQAPGKGLEWVAKISPGGSWTYYSDTVTGRFTFSLDTSKSTAYLQMNSLRAEDTAVYYCARQLWGYYAFDIWGQGTLVTVSS VL: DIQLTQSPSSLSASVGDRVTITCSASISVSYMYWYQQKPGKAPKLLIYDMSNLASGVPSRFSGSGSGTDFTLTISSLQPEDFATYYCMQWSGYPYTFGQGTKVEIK | 591000
